# assay: qHTS for Inhibitors of human tyrosyl-DNA phosphodiesterase 1 (TDP1): qHTS in cells in presence of CPT; also: nearly all actives have a fitted effect of over 55% in size
# condition details: chicken DT40 Tdp1-/-;hTDP1 cells + 20 nM CPT, ATP luminescence, 48 h; series mostly up to 46.2 µM
# Method: Human tyrosyl-DNA phosphodiesterase 1 (TDP1) is a novel repair gene, and we propose to use it as a new target for anticancer drug development. […] For the primary screen, Tdp1-/-;hTDP1 cells will be exposed to small molecules in the presence or absence of CPT, and their growth kinetics will be evaluated after 48 hours by measuring ATP activity. […] The hit compounds will then be evaluated in the presence or absence of CPT using Tdp1-/- cells. […]
Out of some 420,000 compounds screened, about 50,000 (12%) were called active. Another 26% or so got no clear call; they are omitted. Only a selection was taken, and actives are over-represented in it overall.
endpoint name: outcome

N#Cc1cccc(CSc2ncnc(N)n2)c1 :: inactive
CC(C)(C)S(=O)(=O)c1ccccc1-c1noc(-c2ccccc2)c1C(N)=O :: inactive
Cc1c(NC(=O)COC(=O)/C=C/c2cccc(F)c2)c(=O)n(-c2ccccc2)n1C :: inactive
